# target-entity: cynomolgous monkey (cyno) IL-17A (cynomolgus monkey, UniProt A0A2K5TTB0 24-155)
# Sequence (A0A2K5TTB0 entry or part of it): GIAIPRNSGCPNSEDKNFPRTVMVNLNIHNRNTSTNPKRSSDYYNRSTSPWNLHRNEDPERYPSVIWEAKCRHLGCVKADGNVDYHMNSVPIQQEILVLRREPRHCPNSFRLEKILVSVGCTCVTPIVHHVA
# experimental-details: cell-based or functional assay
Listed here: items and their measured Potency (pM), IL-17-driven IL-6 production in HS27 cells.
Please state the figure in pM; there is no need to write the unit.

The cases that follow already have their Potency (pM), IL-17-driven IL-6 production in HS27 cells on record.
binder="IL17-B6-17 (antibody, V domains shown, also called pJP249 B6.1 #17VH / pJP252 B6.1 #17Vk) VH: EVQLVQSGAEVKKPGSSVKVSCKASGGSFGGYGIGWVRQAPGQGLEWMGGITPFFGFADYAQKFQGRVTITADESTTTAYMELSGLTSDDTAVYYCARDPNEFWNGYYSTHDFDSWGQGTTVTVSS VL: EIVLTQSPDFQSVTPKEKVTITCRASQDIGSELHWYQQKPDQPPKLLIKYASHSTSGVPSRFSGSGSGTDFTLTINGLEAEDAGTYYCHQTDSLPYTFGPGTKVDIK" recorded_result=11
binder="IL17-B6-5 (antibody, V domains shown, also called pJP243 B6.1 #5VH / pJP244 B6.1 #5VK) VH: EVQLVQSGAEVKKPGESVKISCKASGGSFRSYGISWVRQAPGQGLEWMGGITHFFGITDYAQKFQGRVTITADESTTTAYMELSGLTSDDTAVYYCAREPNDFWNGYYDTHDFDSWGQGTTVTVSS VL: EIVLTQSPDFQSVTPKEKVTITCRASQNIGSELHWYQQKPDQSPKLLIKYASHSISGVPSRFSGSGSGTDFTLTINGLEAEDAATYYCHQSDTLPHTFGQGTKVDIK" recorded_result=12
binder="IL17-G9-M2 (antibody, V domains shown) VH: EVQLLESGGGVVQPGRSLRLSCAASGFIFSNYGMHWVRQAPGKGLEWVAVISYDGSNKYYADSVKGRFTISRDNSKNTLYLEMNSLRPEDTAVYYCAKVGASGDYYYSYGLDVWGQGTTVTVSS VL: QSVLTQPPSASGTPGQTVSISCSGHNSNIGYHYVHWYQQVPGAAPKLLIYGDGWRPSGVPDRFSGSQSGTSASLAISGLQSEDEADYYCGTWDDWLGGYVFGTGTKVTVLG" recorded_result=105
binder="IL17-B6-11 (antibody, V domains shown) VH: EVQLVQSGAEVKKPGSSVKVSCKASGGSFLSYGFSWVRQAPGQGLEWMGGITPFFGFADYAQKFQGRVTITADESTTTAYMELSGLTSDDTAVYYCAREPNDFWNGYYTTHHFDYWGQGTTVTVSS VL: DVVMTQSPDFQSVTPKEKVTITCRASQNIGSALHWYQQKPDQSPKLLIKYASQSISGVPSRFSGSGSGTDFTLTINGLEAEDAGTYYCHQSTSLPHTFGQGTKLDIKR" recorded_result=33

Provide one value: measured Potency (pM), IL-17-driven IL-6 production in HS27 cells of B6-44 (antibody, V domains shown) VH: EVQLVQSGAEVKKPGSSVKVSCKASGGSFLSYGFSWVRQAPGQGLEWMGGITPFFGLADYAQKFQGRVTITADESTTTAYMELSGLTSDDTAVYYCARESSEFWNGYYCTQDFDLWGQGTTVTVSS VL: EIVLTQSPDFQSVTPKEKVTITCRASQDIGSDLHWYQQKPDQSPKLLIKYASNSISGVPSRFSGSGSGTDFTLTINGLEAEDAGTYYCHQTAYLPQTFGPGTKVDIK
65

Provide one value: measured Potency (pM), IL-17-driven IL-6 production in HS27 cells of IL17-G9-2 (antibody, V domains shown) VH: EVQLLESGGGVVQPGRSLRLSCAASGFIFRNYGMHWVRQAPGKGLEWVAVISYDGSNKYYADSVKGRFTISRDNSKNTLYLEMNSLRPEDTAVYYCAKVGASGDYYYSYGLDVWGQGTTVTVSS VL: QSVLTQPPSASGTPGQTVSISCSGSNSNIGRHPVDWYQQVPGAAPKLLIYYDDQRPSGVPDRFSGSQSGTSASLAISGLQSEDEADYYCATWDDSLGGYVFGSGTKVTVLG
157

Provide one value: measured Potency (pM), IL-17-driven IL-6 production in HS27 cells of IL17-B6-15 (antibody, V domains shown, also called pJP245 B6.1 #15VH / pJP246 B6.1 #15Vk) VH: EVQLVQSGAEVKKPGESLKISCKASGGSFSGYGTSWVRQAPGQGLEWMGGITHFFGAVDYAQKFQGRVTITADESTTTAYMELSGLTSDDTAVYYCARDPNEFWNGYYATHDFDYWGQGTTVTVSS VL: EIVLTQSPDFQSVTPKEKVTITCRASQNIGAELHWYQQKPDQSPKLLIKYASHSISGVPSRFSGSGSGTDFTLTINGLEAEDAGTYYCHQTDRLPYSFGPGTKVDIK
10

Provide one value: measured Potency (pM), IL-17-driven IL-6 production in HS27 cells of IL17-G9-4 (antibody, V domains shown, no own VH entry is printed) VH: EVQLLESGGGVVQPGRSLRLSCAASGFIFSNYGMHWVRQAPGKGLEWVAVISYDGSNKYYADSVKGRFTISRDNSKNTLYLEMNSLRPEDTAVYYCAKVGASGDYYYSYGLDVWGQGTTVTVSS VL: QSVLTQPPSASGTPGQTVSISCSGRQSNIGRHYVDWYQQVPGAAPKLLMYYDSIRPSGVPDRFSGSQSGTSASLAISGLQSEDEADYYCATWDDSLGGYVFGSGTKVTVLG
247

Provide one value: measured Potency (pM), IL-17-driven IL-6 production in HS27 cells of IL17-G9-1 (antibody, V domains shown) VH: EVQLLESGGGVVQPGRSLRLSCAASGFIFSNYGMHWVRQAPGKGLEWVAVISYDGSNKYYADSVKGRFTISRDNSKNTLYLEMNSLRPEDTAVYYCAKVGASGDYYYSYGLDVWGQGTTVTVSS VL: QSVLTQPPSASGTPGQTVSISCSGSHSNIGRHPVDWYQQVPGAAPKLLMYYGGYRPSGVPDRFSGSQSGTSASLAISGLQSEDEADYYCATWDDRLVGYVFGSGTKVTVLG
604

Provide one value: measured Potency (pM), IL-17-driven IL-6 production in HS27 cells of IL17-B6-16 (antibody, V domains shown, also called pJP247 B6.1 #16VH / pJP248 B6.1 #16Vk) VH: EVQLVQSGAEVKMPGSSLKISCKASGGSFRGYGISWVRQAPGQGLEWMGGITPFFGWADYAQKFQGRVTITADESTTTAYMELSGLTSDDTAVYYCARDPNEFWNGYYDTHHFDYWGQGTTVTVSS VL: EIVLTQSPDFQSVTPKEKVTITCRASQDIGSALHWYQQKPDQSPKLLIKYASHSVSGVPSRFSGSGSGTDFTLTINGLEAEDAGTYYCHQSDILPHTFGPGTKVDIK
13

Provenance of the data: patent US20140348834A1
